The measurements presented in this section are drawn from ChEMBL document CHEMBL4513216.

Method description: Toxicity liver stage against HepG2, at 10uM
Assay type: cell-based
Design: test concentration 10 uM, cell line HepG2-A16-CD81EGFP
Measurement context: human, HepG2-A16-CD81EGFP cells; read-out: INHIBITION
Value type: cytotoxicity at 10 µM (%)
Record the value in %, omitting the unit from your answer.

Record summary for Cc1csc(N2CCN(C(=O)CCn3cncn3)CC2)n1 : reported cytotoxicity at 10 µM = -5.97

For record O=C(CC1CC1)N1CCC2(COCc3cnc(-c4ccccc4)nc32)C1 (centres undefined) the listed cytotoxicity at 10 µM is 2.02

GET /value?item= CC(C)CN(C)Cc1nc2c(cnn2C)c(=O)[nH]1 &field=cytotoxicity at 10 µM returns -12.3

Input CN(C)C(=O)C1(c2cnccn2)CCCN1C(=O)Cc1ccccc1 (centres undefined) . Output cytotoxicity at 10 µM: 0.225

Value of measured cytotoxicity at 10 µM for the entry CC(C)N(CC(N)=O)Cc1csc(Cc2ccccc2)n1 : -2.32

// sample c1cnc(Nc2ccc(C3CCCCN3)cn2)cn1 (centres undefined) , its cytotoxicity at 10 µM was 1.24
